Cited source for all entries: patent US20250059171A1

- TESTED ON: HCoV-229E 3CLpro (Human coronavirus 229E, UniProt P0C6X1)
- Sequence (P0C6X1 2966-3267): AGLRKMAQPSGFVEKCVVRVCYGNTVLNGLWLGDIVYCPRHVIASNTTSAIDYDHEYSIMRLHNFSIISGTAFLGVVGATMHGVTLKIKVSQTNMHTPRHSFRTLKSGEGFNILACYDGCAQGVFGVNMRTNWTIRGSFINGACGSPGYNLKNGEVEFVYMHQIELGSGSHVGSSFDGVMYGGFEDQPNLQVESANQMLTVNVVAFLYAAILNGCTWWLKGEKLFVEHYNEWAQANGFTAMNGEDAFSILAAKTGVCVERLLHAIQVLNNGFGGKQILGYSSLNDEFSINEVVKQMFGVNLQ
pIC50: −log10 of the molar value.
The threshold is inclusive: pIC50 of exactly 7 counts as t; values below receive f.

pIC50 >= 7 for CC1(C)[C@@H]2[C@@H](C(=O)NN(C[C@@H]3CCNC3=O)C(=O)[C@H](F)Cl)N(C(=O)[C@@H](NC(=O)C(F)(F)F)C3CC3)C[C@@H]21 [Example 2] ?
t

What do you get for CC1(C)[C@@H]2[C@@H](C(=O)NN(C[C@@H]3CCNC3=O)C(=O)[C@H](F)Cl)N(C(=O)/C=C/c3cc(C(F)(F)F)cc(C(F)(F)F)c3)C[C@@H]21 [Example 180] ?
f

Next compound: CC[C@H](C)[C@H](NC(=O)CC(F)(F)F)C(=O)N1C[C@@H]2CCC[C@@H]2[C@H]1C(=O)NN(C[C@@H]1CCNC1=O)C(=O)[C@H](F)Cl [Example 45]
t

Likewise for CC[C@@H](C)[C@H](NC(=O)C(F)F)C(=O)N1C[C@H]2[C@@H]([C@H]1C(=O)NN(C[C@@H]1CCNC1=O)C(=O)[C@@H](F)Cl)C2(C)C [Example 120] ?
t
